- ASSAY_TARGET: DRB1*0901 (DR9) (Homo sapiens, UniProt P01903+P01911, A100R/A103E/D57H/D86V/F55Y/F60I/F76Y/I96F/K127E/L162R/M171V/P40D/Q125H/Q99R/R33Q/R42F/S133A/S66N/T210M/V115G/W38K/Y107V/Y59G/Y89S)
- Construct: Epstein-Barr virus (EBV) transformed homozygous cell lines were used as sources; endogenous in cells
- MEASUREMENT_NOTES: biochemical
- Format: binding
- CONDITION_PARAMETERS: Binding Capacity (IC50% nM) DR9
No end group written: not given here.

SEQUENCE | IC50
LWWSTMYLTHHYFVDL [Peptide 1136.46] | > 10000 nM
RVYQEPQVSPPQRAET [Peptide 1136.59.01a] | > 10000 nM
QEIDPLSYNYIPVNSN [Peptide 1136.55] | > 10000 nM
WLFPRFKFVWVTYASW [Peptide 1136.44.01] | > 10000 nM
LAAIIFLFGPPTALRS [Peptide 1136.28] | > 10000 nM
LFHYYFLSEKAPGSTV [Peptide 1136.04] | 2880 nM
GPPTALRSFGFAFGYM [Peptide 1136.29] | 183 nM
